test system: P388 leukemia ip, CD2F1 mice, survival T/C; assay: NCI In Vivo Anticancer Drug Screen. Data for tumor model P388 Leukemia (intraperitoneal) in CD2F1 (CDF1) mice; details: endpoint: median survival time; dose: 50.0 mg/kg/injection; schedule: Q01DX005 (ip); vehicle: saline with Tween-80; higher = longer survival
Toxic doses and inconclusive results are not listed. Square brackets hold non-standard residues; d marks the D form. Peptide text beside a SMILES is read from it. * marks the point of attachment. ξ: configuration not given here. ξF = NC(Cc1ccccc1)C(=O)O; Cbz = O=C(OCc1ccccc1)*
metricName: T/C

What does the record list as T/C for "COc1ccc(-c2c(N3CCOCC3)oc3cc(N4CCOCC4)c(O)cc23)cc1" ?
98 % of control

What does the record list as T/C for "CN1CCC2(CC1)OCCCO2" ?
94 % of control

What does the record list as T/C for "O=C1CN(c2cccc(Cl)c2)C(=O)CN1/N=C/c1ccco1" ?
109 % of control

What does the record list as T/C for "COc1ccc(CCNC(=O)C(=O)c2c[nH]c3ccccc23)cc1OC" ?
90 % of control

What does the record list as T/C for "CC1(C)C2CCC(O2)C(C)(C)C2CCC(O2)C(C)(C)C2CCC(O2)C(C)(C)C2CCC1O2" ?
102 % of control

What does the record list as T/C for CCCCCC(C1SC(=S)NC1=O)C1SC(=S)NC1=O (stereo not drawn) ?
90 % of control

What does the record list as T/C for "CCOc1c(N=Nc2ccccc2OC)c(-c2ccccc2)nn1C(N)=S" ?
88 % of control

What does the record list as T/C for "[N-]=[N+]=NC12CC3CC4C5CC(CC41)CC2[C@H]5C3" ?
97 % of control

What does the record list as T/C for "Nc1c(Br)cc(Br)c2c1C(=O)c1c(cccc1S(=O)(=O)O)C2=O" ?
102 % of control

What does the record list as T/C for CC(=O)N1N=C(c2ccc(OCC(O)CN3CCN(CC(O)COc4ccc(C5=NN(C(C)=O)C(c6ccccc6)C5)cc4)CC3)cc2)CC1c1ccccc1 (stereo not drawn) ?
100 % of control

What does the record list as T/C for "O=C1c2ccccc2C(=O)c2c(O)c(CBr)c(CBr)c(O)c21" ?
96 % of control

What does the record list as T/C for O=C(O)CNC(=O)CNC(=O)C(Cc1ccccc1)NC(=O)OCc1ccccc1 (stereo not drawn) (Cbz-[ξF]-Gly-Gly-OH) ?
100 % of control

What does the record list as T/C for CC1=NN(C(=O)CC(=O)Nc2ccc(C(=O)O)cc2)C(=O)C1N=Nc1ccccc1C(=O)O (stereo not drawn) ?
110 % of control

What does the record list as T/C for O=C(CN(Cc1ccccc1)Cc1ccccc1)C(O)C1OC(c2ccccc2)OCC1O (stereo not drawn) ?
91 % of control

What does the record list as T/C for "Cc1c(S)cnc2ccccc12" ?
99 % of control

What does the record list as T/C for "CCOC(OCC)C(N)=O" ?
105 % of control

What does the record list as T/C for COC(=O)C(CO)NC(=O)C(Cc1cnc[nH]1)N(C(=O)OCc1ccccc1)C(=O)OCc1ccccc1 (stereo not drawn) ?
94 % of control

What does the record list as T/C for "Cn1c(NC(=O)C(F)(F)F)cc(=O)n(C)c1=O" ?
102 % of control

What does the record list as T/C for "Nc1nnnn1CCCl" ?
94 % of control

What does the record list as T/C for "Nc1ncnc2nc(/N=N/SCCC(=O)O)[nH]c12" ?
108 % of control

What does the record list as T/C for "CNC(=O)OCc1c(COC(=O)NC)c(-c2cccs2)n2c1CCC2" ?
104 % of control

What does the record list as T/C for C=CCC12CC(C)OC1=Nc1ccccc1NC2=O (stereo not drawn) ?
98 % of control

What does the record list as T/C for "O=C1c2ccccc2-c2cc(O)c3c4c(O)cc5c6c(ccc(c7ccc1c2c73)c64)C(=O)c1ccccc1-5" ?
95 % of control

What does the record list as T/C for "C/C(N=NC(=S)N1CCCC1)=C1\C=CC=CN1O" ?
106 % of control

What does the record list as T/C for "N#CCCSC(=S)N1CCN(C(=S)SCCC#N)C1=O" ?
92 % of control

What does the record list as T/C for "O/N=C1/C(=N/O)N(c2ccccc2)CCN1c1ccccc1" ?
99 % of control

What does the record list as T/C for "CC(=O)CC(=O)c1ccc(C)cc1.CC(=O)CC(=O)c1ccc(C)cc1.[Ni]" ?
91 % of control

What does the record list as T/C for O=C1C2C3C=CC(O3)C2C(=O)N1/N=C\C(O)C(O)C(O)C(O)CO (stereo not drawn) ?
97 % of control

What does the record list as T/C for "CCNC(=O)/C=C/c1cccc(Br)c1" ?
105 % of control

What does the record list as T/C for CC1(C(=O)O)C2[Se]c3cc[se]c3C2C1(C)C(=O)O (stereo not drawn) ?
100 % of control

What does the record list as T/C for CC(C)(C)OC(=O)NC(CCC(=O)OCc1ccccc1)C(=O)ON1C(=O)CCC1=O (stereo not drawn) ?
104 % of control

What does the record list as T/C for "Cc1cc(Br)c2nsnc2c1[N+](=O)[O-]" ?
122 % of control

What does the record list as T/C for CC1C(c2ccccc2)NC(c2ccccc2)C(C)C1(O)c1ccccc1 (stereo not drawn) ?
107 % of control

What does the record list as T/C for "O/N=C/c1cc(I)cc(I)c1O" ?
90 % of control

What does the record list as T/C for "CC(C)(CCN)c1cc(CC(C)(C)C2(C)OCCO2)no1" ?
113 % of control

What does the record list as T/C for "CCCCCN(CCCCC)CCCCCCCCN1CCCc2ccccc21" ?
106 % of control

What does the record list as T/C for COC1(C)OC23C(=O)N(C)C(=O)N(C)C2(O1)N(C(C)=O)C(=O)N3C (stereo not drawn) ?
100 % of control

What does the record list as T/C for COc1ccc(CNC(=O)C(CO)N2C(=O)c3ccccc3C2=O)cc1 (stereo not drawn) ?
96 % of control
